Reported pKd values for a set of binders
Molecular target: T1, ABH2 V99A (human, UniProt Q6NS38 1-261, V99A)
T1 sequence: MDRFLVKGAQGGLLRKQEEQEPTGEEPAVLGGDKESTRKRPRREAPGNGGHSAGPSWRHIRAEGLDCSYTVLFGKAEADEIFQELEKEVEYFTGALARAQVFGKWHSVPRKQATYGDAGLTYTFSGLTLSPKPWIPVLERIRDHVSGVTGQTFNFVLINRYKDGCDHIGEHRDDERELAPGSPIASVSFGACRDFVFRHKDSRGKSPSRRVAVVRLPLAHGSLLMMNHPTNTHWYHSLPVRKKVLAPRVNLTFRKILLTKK
Assay: EMSA; 0.5 mM αKG, 10 mM Mg2+, 2 mM ascorbate; 50 mM Tris-HCl pH 8.0, 50 mM KCl, 10 mM MgCl2, 0.5 mM αKG, 2 mM sodium ascorbate; 1.2 µM DNA, 0.4-12.8 µM protein; 10 min 37 °C then 5 min on ice; 10% native PAGE, 0.5x TBE, 4-8 °C; Hill fit
Settings: protein: recombinant; tags: N-terminal His6; label: 5'-FAM on strand 1; blunt
Give only the number. pKd is defined as minus log10 of concentration in molar units.

{"BINDER": "m1A dsDNA (dsDNA, N1-methyladenine (m1A) at position 10 of strand 1) DNA 1: AGTTCAATGATCTTCAT DNA 2: ATGAAGATCATTGAACT", "NUMERIC_READOUT": 5.49}

Alright, here's another binder for you.
stdin: What pKd value was documented for this binder, m3C dsDNA (dsDNA, N3-methylcytosine (m3C) at position 12 of strand 1) DNA 1: AGTTCAATGATCTTCAT DNA 2: ATGAAGATCATTGAACT ?
stdout: 5.60
